Please go through the items and note down their inhibition.
Test system: methionyl-tRNA synthetase (Trypanosoma brucei brucei)
Protocol notes: T. brucei MetRS inhibitors, primary screen, biochemical, luminescence (AID 624268);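 further: 0% = DMSO wells median and 100% = median of wells with control inhibitor compound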
Condition description: purified T. brucei MetRS, ATP depletion, Kinase-Glo luminescence; at 11.9 µM; stronger effect = higher value
About 1,500 (0.42%) of roughly 360,000 compounds were called active. For the sample, actives were picked, then their nearest neighbours and some compounds at random.
Give the value in % but do not write % after it.

Item under review: CCn1c(SCC(=O)Nc2ccccc2F)nc2c(c1=O)SC(C)C2 (configuration not stated) . Reported inhibition?
-0.06

Also check `O=C(ON=C1CCN(S(=O)(=O)c2ccccc2)CC1)c1ccc(Cl)cc1`
-0.24

Also check `COCc1nnc(NC(=O)CS(=O)(=O)Cc2ccccc2)s1`
0.23

Also check `COc1cccc(CC2(CO)CCN(Cc3cnc(-c4cccc(C)c4)nc3)CC2)c1`
-0.01

Also check Cc1cccc(C)c1-n1nnnc1C(CCc1ccccc1)N1CCN(C/C=C/c2ccccc2)CC1 (configuration not stated)
-1

Also check `CC(=O)c1ccc(NC(=O)c2ccc(-n3cncn3)c([N+](=O)[O-])c2)cc1`
36.6

Also check `C#CCNC(=O)C[C@@H]1C[C@@]2(C(=O)OCC)CCCC=C2N(Cc2ccco2)C1=O`
-0.95

Also check `Cc1cc(=O)n2nc(N3CCC(C(=O)Nc4c(F)c(F)c(F)c(F)c4F)CC3)sc2n1`
-0.7

Also check `Brc1cnc2ccccc2c1N1CCCCC1`
-0.62

Also check `OCC1(CCc2ccccc2)CCN(Cc2ccc3nsnc3c2)CC1`
0.28

Also check `COc1ccccc1OCC(=O)Nc1c2c(nn1-c1ccc(F)cc1)CS(=O)(=O)C2`
0.18

Also check CC(C)CCNC(=O)C1CCCN(S(=O)(=O)c2ccc(F)cc2)C1 (configuration not stated)
-0.46

Also check `N#CCc1c[nH]c2ccc([N+](=O)[O-])cc12`
-0.24

Also check `Cc1ccc(O)c(CNc2nc3ccccc3[nH]2)c1`
72.6

Also check CCC(C)[C@H](NC(=O)N1c2ccccc2NC(=O)[C@@H]1C(C)C)C(=O)N[C@@H](Cc1ccccc1)C(=O)O (some centres not stated)
-1.81

Also check `O=C(c1ccc(N2CCCC2=O)cc1)N1CCN(c2ccc(C(F)(F)F)cc2[N+](=O)[O-])CC1`
-0.05

Also check `CCOc1ccc(C(=O)Nc2cc(Cl)ccc2-n2cncn2)cc1OC`
-0.61

Also check `Cc1c(O)c(C)c2c(c1O)C(=O)C[C@@H](c1ccccc1)O2`
1.18

Also check `CCOc1cc(NC(=S)NCCCN(C)C)c(OCC)cc1NC(=O)C1CC1`
-0.32

Also check `O=C(Nc1ccccc1)Nc1nnc(COc2ccccc2F)s1`
17.3

Also check COc1ccc(CCNC(=O)C2CC3Cn4c(nc5cc(C)c(C)cc54)C3N2C)cc1 (configuration not stated)
0.64

Also check CSc1ncccc1C(=O)NCC(c1ccco1)N1CCCCC1 (configuration not stated)
0.26
